# credit: patent US8163778B2

# assay.target: human liver FBPase (Homo sapiens)
# Construct: made in house; host or cells: E. coli
# Sequence (P09467 2-338 limits assumed): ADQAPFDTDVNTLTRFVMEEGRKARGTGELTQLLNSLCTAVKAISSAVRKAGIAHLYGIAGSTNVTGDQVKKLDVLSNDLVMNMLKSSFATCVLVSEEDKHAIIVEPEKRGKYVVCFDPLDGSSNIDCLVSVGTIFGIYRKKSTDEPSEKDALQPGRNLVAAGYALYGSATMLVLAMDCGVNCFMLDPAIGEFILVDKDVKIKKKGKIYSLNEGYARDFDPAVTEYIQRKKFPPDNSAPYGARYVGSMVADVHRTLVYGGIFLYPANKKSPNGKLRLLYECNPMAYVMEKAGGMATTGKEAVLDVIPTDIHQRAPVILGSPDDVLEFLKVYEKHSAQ
# method.notes: FBPase assay (malachite green phosphate release)
# Type: biochemical
# recorded.conditions: recombinant human liver FBPase, 50 μM fructose-1,6-bisphosphate
pIC50: −log10 of the molar value.
Each entry gets rule not met if its pIC50 stays under 6, and rule met if its pIC50 is 6 or above.

{"molecule": "COCCc1sc(S(=O)(=O)NC(=O)Nc2cc([S+](C)[O-])cc(NC(N)=O)n2)cc1C (stereo not drawn) [Compound 95]", "classification": "rule not met"}
{"molecule": "CNC(=O)Nc1cc(C(=O)NC)cc(NC(=O)NS(=O)(=O)c2cc(C)c(CCOC)s2)n1 [Compound 103]", "classification": "rule not met"}
{"molecule": "O=C(Nc1cc(Br)ccn1)NS(=O)(=O)c1ccc(Cl)cc1 [Compound 69]", "classification": "rule not met"}
{"molecule": "CNC(=O)Nc1cc(OC)cc(NC(=O)NS(=O)(=O)c2csc(C)c2)n1 [Compound 9]", "classification": "rule met"}
{"molecule": "COCCc1sc(S(=O)(=O)NC(=O)Nc2cc(SC)cc(NCCC(F)(F)F)n2)cc1C [Compound 75]", "classification": "rule not met"}

*Q* Does pIC50 meet or surpass 6 for COCCc1sc(S(=O)(=O)NC(=O)Nc2cc(C)cc(N3CCc4ccccc4C3)n2)cc1C [Compound 56] ?
*A* rule not met

*Q* Does pIC50 meet or surpass 6 for CSc1cc(N)nc(NC(=O)NS(=O)(=O)c2coc3ccc(Br)cc23)c1 [Compound 87] ?
*A* rule not met

*Q* Does pIC50 meet or surpass 6 for Cc1cccc(S(=O)(=O)NC(=O)Nc2cc(Br)cc(N)n2)c1 [Compound 36] ?
*A* rule met

*Q* Does pIC50 meet or surpass 6 for CNC(=O)Nc1cc(OC)cc(NC(=O)NS(=O)(=O)c2cccc(C)c2)n1 [Compound 27] ?
*A* rule met

*Q* Does pIC50 meet or surpass 6 for COCCOc1ccc(S(=O)(=O)NC(=O)Nc2cc(Br)cc(N)n2)cc1C [Compound 57] ?
*A* rule not met

*Q* Does pIC50 meet or surpass 6 for COCCc1sc(S(=O)(=O)NC(=O)Nc2cc(Br)cc(NCC(F)F)n2)cc1C [Compound 19] ?
*A* rule met

*Q* Does pIC50 meet or surpass 6 for Nc1cc(Br)cc(NC(=O)NS(=O)(=O)c2coc3ccc(Br)cc23)n1 [Compound 83] ?
*A* rule not met

*Q* Does pIC50 meet or surpass 6 for CNC(=O)c1cc(C(F)(F)F)cc(NC(=O)NS(=O)(=O)c2cc(C)c(CCO)s2)n1 [Compound 97] ?
*A* rule met

*Q* Does pIC50 meet or surpass 6 for CCOc1cc(NC(N)=O)nc(NC(=O)NS(=O)(=O)c2cc(C)c(CCOC)s2)c1 [Compound 40] ?
*A* rule met
